system: hα2A receptor (Homo sapiens)
Construct: expressed in transfected cells; host or cells: CHO cells, stably transfected; membrane preparation
test: Radioligand binding experiment for α2A-adrenoceptor ([3H]raulwolscine, CHO cell membranes)
condition_description: [3H]raulwolscine binding, read-out: h-α2A pIC50 (converted)
Some molecules, each annotated with its measured IC50.
quantity_measured: IC50

smiles_structure=C/C(=C\c1ccccc1)CN1CCC(Nc2nccn(-c3cccc(NC(=O)CC4CCCC4)c3)c2=O)CC1 system="hα2A receptor (Homo sapiens)" result="63.1 nM"
smiles_structure=C/C(=C\c1ccccc1)CN1CCC(Nc2nccn(Cc3ccccc3C(F)(F)F)c2=O)CC1 system="hα2A receptor (Homo sapiens)" result="158 nM"
smiles_structure=COCCN(C)C(=O)Cn1ccnc(NC2CCN(C/C(C)=C/c3ccccc3)CC2)c1=O system="hα2A receptor (Homo sapiens)" result="126 nM"

----------
system: 5HT-Transporter (Homo sapiens, UniProt P31645)
Construct: Human platelet membranes (Oceanix Biosciences Corporation, Hanover, Md., USA) were thawed; tissue Oceanix Biosciences Corporation, Hanover, Md., USA; host or cells: human platelet membranes
Sequence (P31645 whole entry): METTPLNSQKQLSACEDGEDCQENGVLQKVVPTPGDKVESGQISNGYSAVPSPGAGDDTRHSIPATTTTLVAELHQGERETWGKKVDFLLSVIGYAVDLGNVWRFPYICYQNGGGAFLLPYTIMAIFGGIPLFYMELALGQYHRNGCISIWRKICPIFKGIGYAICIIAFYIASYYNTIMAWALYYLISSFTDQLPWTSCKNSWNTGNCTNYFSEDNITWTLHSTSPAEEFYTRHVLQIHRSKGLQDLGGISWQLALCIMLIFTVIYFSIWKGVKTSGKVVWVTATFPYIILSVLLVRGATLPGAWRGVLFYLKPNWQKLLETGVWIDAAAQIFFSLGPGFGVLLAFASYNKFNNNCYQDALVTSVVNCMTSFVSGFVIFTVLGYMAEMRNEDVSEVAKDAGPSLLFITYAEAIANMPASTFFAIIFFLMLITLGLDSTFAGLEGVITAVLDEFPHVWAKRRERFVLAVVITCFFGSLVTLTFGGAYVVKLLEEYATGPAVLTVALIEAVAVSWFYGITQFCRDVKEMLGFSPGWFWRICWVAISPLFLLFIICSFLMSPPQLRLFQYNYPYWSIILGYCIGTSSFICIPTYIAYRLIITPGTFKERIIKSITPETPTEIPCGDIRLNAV
test: Binding experiment for the 5HT-transporter ([3H]paroxetine, human platelet membranes)
condition_description: [3H]paroxetine 0.5 nM, read-out: h-5HTT pIC50 (converted)
Label TRUE when IC50 < 800 nM; otherwise FALSE.

smiles_structure=C/C(=C\c1ccccc1)CN1CCN(c2nccn(Cc3ccccc3)c2=O)CC1 system="5HT-Transporter (Homo sapiens, UniProt P31645)" label_class=FALSE
smiles_structure=C/C(=C\c1ccccc1)CN1CCC(Nc2nccn(Cc3ccco3)c2=O)CC1 system="5HT-Transporter (Homo sapiens, UniProt P31645)" label_class=FALSE
smiles_structure=C/C(=C\c1ccccc1)CN1CCC(N(C)c2nccn(CCCO)c2=O)CC1 system="5HT-Transporter (Homo sapiens, UniProt P31645)" label_class=FALSE
smiles_structure=C/C(=C\c1ccccc1)CN1CCC(Nc2nccn(CCCNc3ccccc3)c2=O)CC1 system="5HT-Transporter (Homo sapiens, UniProt P31645)" label_class=TRUE
smiles_structure=C/C(=C\c1ccccc1)CN1CCC(Nc2nccn(-c3ccc(C(=O)NCCN4CCCCC4)cc3)c2=O)CC1 system="5HT-Transporter (Homo sapiens, UniProt P31645)" label_class=TRUE
smiles_structure=C/C(=C\c1ccccc1)CN1CCC(Nc2nccn(Cc3ccc(Br)cc3)c2=O)CC1 system="5HT-Transporter (Homo sapiens, UniProt P31645)" label_class=TRUE
smiles_structure=C/C(=C\c1ccccc1)CN1CCC(Nc2nccn(-c3ccc(N)cc3)c2=O)CC1 system="5HT-Transporter (Homo sapiens, UniProt P31645)" label_class=FALSE
smiles_structure=C/C(=C\c1ccccc1)CN1CCC(Nc2nccn(CCCNC(=O)c3ccccc3)c2=O)CC1 system="5HT-Transporter (Homo sapiens, UniProt P31645)" label_class=FALSE
smiles_structure=C/C(=C\c1ccccc1)CN1CCC(Nc2nccn(CN3C(=O)c4ccccc4C3=O)c2=O)CC1 system="5HT-Transporter (Homo sapiens, UniProt P31645)" label_class=TRUE
smiles_structure=CCOC(=O)CN(Cc1ccccc1)C(=O)Cn1ccnc(NC2CCN(C/C(C)=C/c3ccccc3)CC2)c1=O system="5HT-Transporter (Homo sapiens, UniProt P31645)" label_class=FALSE
smiles_structure=C/C(=C\c1ccccc1)CN1CCC(Nc2nccn(C/C=C/CN3C(=O)c4ccccc4C3=O)c2=O)CC1 system="5HT-Transporter (Homo sapiens, UniProt P31645)" label_class=TRUE
smiles_structure=C/C(=C\c1ccccc1)CN1CCC(Nc2nccn(CC(=O)N(C)c3ccccc3)c2=O)CC1 system="5HT-Transporter (Homo sapiens, UniProt P31645)" label_class=TRUE
smiles_structure=C/C(=C\c1ccccc1)CN1CCC(Nc2nccn(-c3ccc(N4CCOCC4)cc3)c2=O)CC1 system="5HT-Transporter (Homo sapiens, UniProt P31645)" label_class=FALSE
smiles_structure=C/C(=C\c1ccccc1)CN1CCC(Nc2nccn(Cc3ccc(C#N)cc3)c2=O)CC1 system="5HT-Transporter (Homo sapiens, UniProt P31645)" label_class=FALSE
smiles_structure=C/C(=C\c1ccccc1)CN1CCC(Nc2nccn(Cc3ccc([N+](=O)[O-])cc3)c2=O)CC1 system="5HT-Transporter (Homo sapiens, UniProt P31645)" label_class=TRUE
smiles_structure=C/C(=C\c1ccccc1)CN1CCN(c2ncc[nH]c2=O)CC1 system="5HT-Transporter (Homo sapiens, UniProt P31645)" label_class=FALSE
smiles_structure=C/C(=C\c1ccccc1)CN1CCC(Nc2nccn(CC(=O)N(C)C)c2=O)CC1 system="5HT-Transporter (Homo sapiens, UniProt P31645)" label_class=FALSE

----------
Examples of compounds with documented log10(IC50) follow.
system: hα2A receptor (Homo sapiens, UniProt P08913)
Construct: expressed in transfected cells; host or cells: CHO cells, stably transfected; membrane preparation
Sequence (P08913 whole entry): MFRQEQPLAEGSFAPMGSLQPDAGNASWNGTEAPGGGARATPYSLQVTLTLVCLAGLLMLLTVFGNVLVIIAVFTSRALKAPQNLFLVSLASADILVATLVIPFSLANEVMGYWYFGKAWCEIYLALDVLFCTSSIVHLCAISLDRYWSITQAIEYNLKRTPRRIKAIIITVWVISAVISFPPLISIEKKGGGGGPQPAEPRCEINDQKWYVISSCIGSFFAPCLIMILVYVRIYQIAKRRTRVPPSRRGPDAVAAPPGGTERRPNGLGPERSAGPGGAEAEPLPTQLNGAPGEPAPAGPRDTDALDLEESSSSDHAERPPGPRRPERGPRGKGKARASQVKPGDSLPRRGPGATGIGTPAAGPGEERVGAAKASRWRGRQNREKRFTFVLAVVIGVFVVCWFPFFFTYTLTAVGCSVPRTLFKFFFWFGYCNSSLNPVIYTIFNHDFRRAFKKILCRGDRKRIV
test: Radioligand binding experiment for α2A-adrenoceptor ([3H]raulwolscine, CHO cell membranes)
condition_description: [3H]raulwolscine binding, read-out: h-α2A pIC50 (converted)
quantity_measured: log10(IC50) (log10 of the value in nM)

smiles_structure=C/C(=C\c1ccccc1)CN1CCC(Nc2nccn(CC(=O)N3CCN(C)CC3)c2=O)CC1 quantity_measured=log10(IC50) result=1.80
smiles_structure=C/C(=C\c1ccccc1)CN1CCC(Nc2nccn(CCCN(C)CC(=O)c3ccccc3)c2=O)CC1 quantity_measured=log10(IC50) result=2.00
smiles_structure=C/C(=C\c1ccccc1)CN1CCC(Nc2nccn(Cc3ccccc3C#N)c2=O)CC1 quantity_measured=log10(IC50) result=2.00
smiles_structure=COCCCn1ccnc(NC2CCN(C/C(C)=C/c3ccccc3)CC2)c1=O quantity_measured=log10(IC50) result=2.80
smiles_structure=C/C(=C\c1ccccc1)CN1CCC(Nc2nccn(Cc3ccc(S(C)(=O)=O)cc3)c2=O)CC1 quantity_measured=log10(IC50) result=2.10
smiles_structure=C/C(=C\c1ccccc1)CN1CCC(Nc2nccn(-c3ccc(C#N)cc3)c2=O)CC1 quantity_measured=log10(IC50) result=1.70
smiles_structure=C/C(=C\c1ccccc1)CN1CCC(Nc2nccn(-c3ccc(C(=O)NCCN4CCCCC4)cc3)c2=O)CC1 quantity_measured=log10(IC50) result=1.60
smiles_structure=C/C(=C\c1ccccc1)CN1CCN(c2nccn(Cc3ccccc3)c2=O)CC1 quantity_measured=log10(IC50) result=1.80
smiles_structure=C/C(=C\c1ccccc1)CN1CCC(Nc2nccn(Cc3ccc(CNS(C)(=O)=O)cc3)c2=O)CC1 quantity_measured=log10(IC50) result=2.20
smiles_structure=O=c1c(NC2CCN(C/C=C/c3ccccc3)CC2)nccn1CCN1CCOCC1 quantity_measured=log10(IC50) result=3.60
smiles_structure=O=c1c(NC2CCN(C/C=C/c3ccccc3)CC2)nccn1CCc1ccccc1 quantity_measured=log10(IC50) result=2.90
smiles_structure=C/C(=C\c1ccccc1)CN1CCC(Nc2nccn(CCCNC(=O)CC3CCCC3)c2=O)CC1 quantity_measured=log10(IC50) result=2.30
smiles_structure=C/C(=C\c1ccccc1)CN1CCC(Nc2nccn(CC(=O)Nc3ccc(N4CCOCC4)cc3)c2=O)CC1 quantity_measured=log10(IC50) result=2.10
smiles_structure=C/C(=C\c1ccccc1)CN1CCC(Nc2nccn(CCCNS(C)(=O)=O)c2=O)CC1 quantity_measured=log10(IC50) result=2.30
smiles_structure=C/C(=C\c1ccccc1)CN1CCC(Nc2nccn(Cc3ccncc3)c2=O)CC1 quantity_measured=log10(IC50) result=2.20
smiles_structure=CCCCCn1ccnc(NC2CCN(C/C(C)=C/c3ccccc3)CC2)c1=O quantity_measured=log10(IC50) result=2.00
smiles_structure=C/C(=C\c1ccccc1)CN1CCC(Nc2nccn(CCCN(Cc3ccccc3)Cc3ccccc3)c2=O)CC1 quantity_measured=log10(IC50) result=2.00
smiles_structure=C/C(=C\c1ccccc1)CN1CCC(Nc2nccn(-c3cccc(NS(=O)(=O)Cc4ccccc4)c3)c2=O)CC1 quantity_measured=log10(IC50) result=1.80
smiles_structure=C/C(=C\c1ccccc1)CN1CCC(Nc2nccn(Cc3ccc(Br)cc3)c2=O)CC1 quantity_measured=log10(IC50) result=2.10
smiles_structure=C/C(=C\c1ccccc1)CN1CCC(Nc2nccn(-c3ccc(NCCc4ccccc4)cc3)c2=O)CC1 quantity_measured=log10(IC50) result=1.90
smiles_structure=CCCN(C)C(=O)Cn1ccnc(NC2CCN(C/C(C)=C/c3ccccc3)CC2)c1=O quantity_measured=log10(IC50) result=2.10

----------
system: 5HT-Transporter (Homo sapiens)
Construct: Human platelet membranes (Oceanix Biosciences Corporation, Hanover, Md., USA) were thawed; tissue Oceanix Biosciences Corporation, Hanover, Md., USA; host or cells: human platelet membranes
test: Binding experiment for the 5HT-transporter ([3H]paroxetine, human platelet membranes)
condition_description: [3H]paroxetine 0.5 nM, read-out: h-5HTT pIC50 (converted)
Protocol: The interaction of a compound of Formula (I) with α2-adrenoceptor receptors was assessed in in vitro radioligand binding experiments. […] When equilibrium of binding is reached, the receptor bound radioactivity is separated from the non-bound radioactivity, and the receptor- or transporter-bound activity is counted. The interaction of the test compounds with the receptor is assessed in competition binding experiments. […]
quantity_measured: IC50 (nM)

compound="O=C1c2ccccc2C(=O)N1CCCn1ccnc(NC2CCN(C/C=C/c3ccccc3)CC2)c1=O [16-8]" quantity_measured=IC50 result=200
compound="C/C(=C\\c1ccccc1)CN1CCN(c2nccn(CC(=O)c3ccc(-c4ccccc4)cc3)c2=O)CC1 [12-6]" quantity_measured=IC50 result=2000
compound="C/C(=C\\c1ccccc1)CN1CCC(Nc2nccn(CCCN(C)C(=O)OC(C)(C)C)c2=O)CC1 [1-92]" quantity_measured=IC50 result=1260
compound="C/C(=C\\c1ccccc1)CN1CCC(Nc2nccn(CC(=O)N(CCN3CCCC3)Cc3ccccc3)c2=O)CC1 [1-135]" quantity_measured=IC50 result=794
compound="C/C(=C\\c1ccccc1)CN1CCC(Nc2nccn(-c3ccc(C(=O)N4CCC(C)CC4)cc3)c2=O)CC1 [2-11]" quantity_measured=IC50 result=501
compound="CC(=O)CN(C)CCCn1ccnc(NC2CCN(C/C(C)=C/c3ccccc3)CC2)c1=O [1-38]" quantity_measured=IC50 result=7940
compound="C/C(=C\\c1ccccc1)CN1CCC(Nc2nccn(CC(=O)N3CCN(C)CC3)c2=O)CC1 [2-20]" quantity_measured=IC50 result=2510
compound="C/C(=C\\c1ccccc1)CN1CCC(Nc2nccn(CC(=O)N3CCC(N4CCCC4)CC3)c2=O)CC1 [2-17]" quantity_measured=IC50 result=2000
compound="C/C(=C\\c1ccccc1)CN1CCC(Nc2nccn(CCCNC(=O)Nc3ccccc3)c2=O)CC1 [1-119]" quantity_measured=IC50 result=158
compound="C/C(=C\\c1ccccc1)CN1CCN(c2nccn(C/C=C/c3ccccc3)c2=O)CC1 [12-3]" quantity_measured=IC50 result=1260
